Cited source for all entries: paper PMC5584254

Listed below: Primary Screen mP values for each entry.
- ASSAY SYSTEM: Bcl-xL-Beclin 1 complex (Homo sapiens, UniProt Q07817)
- Construct: made in house
- Sequence (Q07817 whole entry, one chain of several): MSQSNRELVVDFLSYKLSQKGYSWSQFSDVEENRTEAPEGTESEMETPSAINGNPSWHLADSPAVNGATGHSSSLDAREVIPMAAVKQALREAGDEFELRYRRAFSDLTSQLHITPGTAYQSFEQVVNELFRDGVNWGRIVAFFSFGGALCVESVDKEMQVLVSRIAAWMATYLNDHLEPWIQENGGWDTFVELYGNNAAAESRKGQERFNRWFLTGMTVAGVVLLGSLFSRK
- PROTOCOL: FP-based high-throughput screening, primary screen
- Assay type: binding
- RECORDED CONDITIONS: first screen; 40 μM compound, 2.5 μM Bcl-xL, 400 nM 20-mer
Counter-ions that a name gives are not always drawn.
PARAMETER MEASURED: Primary Screen mP (mP)

- MOLECULE: "O=C1C=C2CC3(O)COc4cc(O)ccc4C3=C2C=C1O (stereo not shown)"
  DATA VALUE: 96.0
- MOLECULE: "O=C1c2c(O)ccc(O)c2C(=O)c2c(NCCNCCO)ccc(NCCNCCO)c21 [Compound A11, MITOXANTRONE HYDROCHLORIDE]"
  DATA VALUE: 99.8
- MOLECULE: "CC1=NCCc2c1[nH]c1cc(O)ccc21 [Compound A28, HARMALOL HYDROCHLORIDE]"
  DATA VALUE: 56.2
- MOLECULE: "O=C(O)C1=CC(=C(c2ccc(O)c(C(=O)O)c2)c2ccc(O)c(C(=O)O)c2)C=CC1=O"
  DATA VALUE: 129.7

----------
- Tested on: PC-3a
- PROTOCOL: MTT-based cytotoxicity assay, PC-3a
- RECORDED CONDITIONS: Homo sapiens, averages of at least two independent experiments, read-out: Cytotoxicity in different cell lines (IC50, μM) PC-3a

- MOLECULE: "Nc1ccc2cc3ccc(N)cc3nc2c1 [Compound A13, PROFLAVINE HEMISULFATE]"
  LIMIT QUALIFIER: "="
  IC50 [µM]: 0.68
- MOLECULE: "COc1ccc2nc3cc(Cl)ccc3c(-c3ccc(NC(=O)OC(C)(C)C)cc3)c2c1 [Compound 16]"
  LIMIT QUALIFIER: "="
  IC50 [µM]: 38.7
- MOLECULE: "CN(CCc1ccc(O)c(O)c1)c1c2ccccc2nc2ccccc12 [Compound 2]"
  LIMIT QUALIFIER: "="
  IC50 [µM]: 29.2
- MOLECULE: "COc1ccc2nc3cc(Cl)ccc3c(-c3ccc([N+](=O)[O-])cc3)c2c1 [Compound 14]"
  LIMIT QUALIFIER: ">"
  IC50 [µM]: 100
- MOLECULE: "COc1ccc(CCNc2ncnc3ccccc23)cc1OC [Compound 3]"
  LIMIT QUALIFIER: "="
  IC50 [µM]: 82.7

----------
- ASSAY SYSTEM: Bcl-xL-Beclin 1 complex (Homo sapiens)
- Construct: made in house
- PROTOCOL: Concentration response FP reconfirmation of HTS hits
- Format: binding
- RECORDED CONDITIONS: read-out: Dose-response (% Inhibition) 10 μM
Structures can show the parent of a compound that is named as a salt.

- COMPOUND: "CN1C[C@H](C(=O)N[C@]2(C)O[C@@]3(O)[C@@H]4CCCN4C(=O)[C@H](Cc4ccccc4)N3C2=O)C=C2c3cccc4[nH]cc(c34)C[C@H]21 [Compound A18, ERGOTAMINE TARTRATE]"
  ASSAY SYSTEM: "Bcl-xL-Beclin 1 complex (Homo sapiens)"
  MEASUREMENT UNITS: "%"
  inhibition at 10 µM: 0.3
- COMPOUND: "O=C(Nc1ccccc1)c1ccccc1O [Compound A39, SALICYLANILIDE]"
  ASSAY SYSTEM: "Bcl-xL-Beclin 1 complex (Homo sapiens)"
  MEASUREMENT UNITS: "%"
  inhibition at 10 µM: 103
- COMPOUND: "Cc1cc2c(C(C)C)c(O)c(O)c(C=O)c2c(O)c1-c1c(C)cc2c(C(C)C)c(O)c(O)c(C=O)c2c1O"
  ASSAY SYSTEM: "Bcl-xL-Beclin 1 complex (Homo sapiens)"
  MEASUREMENT UNITS: "%"
  inhibition at 10 µM: 4.8

----------
- ASSAY SYSTEM: Bcl-xL-Beclin 1 complex (Homo sapiens, UniProt Q07817)
- Construct: made in house
- PROTOCOL: Concentration response FP reconfirmation of HTS hits
- Assay type: binding
- RECORDED CONDITIONS: read-out: Dose-response (% Inhibition) 20 μM
Structures can show the parent of a compound that is named as a salt.
Response key: 1.0 means inhibition at 20 µM >= 7%; 0.0 means inhibition at 20 µM < 7%.

- COMPOUND: "COc1cccc2c1C(=O)c1c(O)c3c(c(O)c1C2=O)C[C@@](O)(C(C)=O)C[C@@H]3O[C@H]1C[C@H](N)[C@H](O)[C@H](C)O1 [Compound A36, DAUNORUBICIN]"
  ASSAY SYSTEM: "Bcl-xL-Beclin 1 complex (Homo sapiens, UniProt Q07817)"
  ASSIGNED CLASS: 1.0
- COMPOUND: "CCCCCCCCCc1ccc(OCCOCCOCCOCCOCCOCCOCCOCCOCCO)cc1 [Compound A17, NONOXYNOL-9]"
  ASSAY SYSTEM: "Bcl-xL-Beclin 1 complex (Homo sapiens, UniProt Q07817)"
  ASSIGNED CLASS: 0.0
- COMPOUND: "C[n+]1cc2c3c(ccc2c2ccc4cc5c(cc4c21)OCO5)OCO3 [Compound A05, SANGUINARINE SULFATE]"
  ASSAY SYSTEM: "Bcl-xL-Beclin 1 complex (Homo sapiens, UniProt Q07817)"
  ASSIGNED CLASS: 0.0
- COMPOUND: "O=C(Nc1ccccc1)c1ccccc1O [Compound A39, SALICYLANILIDE]"
  ASSAY SYSTEM: "Bcl-xL-Beclin 1 complex (Homo sapiens, UniProt Q07817)"
  ASSIGNED CLASS: 1.0
- COMPOUND: "CN1C[C@H](C(=O)N[C@]2(C)O[C@@]3(O)[C@@H]4CCCN4C(=O)[C@H](Cc4ccccc4)N3C2=O)C=C2c3cccc4[nH]cc(c34)C[C@H]21 [Compound A18, ERGOTAMINE TARTRATE]"
  ASSAY SYSTEM: "Bcl-xL-Beclin 1 complex (Homo sapiens, UniProt Q07817)"
  ASSIGNED CLASS: 0.0
- COMPOUND: "O=C1C(Cl)=C(Cl)C(=O)C(Cl)=C1Cl [Compound A27, CHLORANIL]"
  ASSAY SYSTEM: "Bcl-xL-Beclin 1 complex (Homo sapiens, UniProt Q07817)"
  ASSIGNED CLASS: 1.0
- COMPOUND: "Cc1cc2c(C(C)C)c(O)c(O)c(C=O)c2c(O)c1-c1c(C)cc2c(C(C)C)c(O)c(O)c(C=O)c2c1O [Compound A38, GOSSYPOL]"
  ASSAY SYSTEM: "Bcl-xL-Beclin 1 complex (Homo sapiens, UniProt Q07817)"
  ASSIGNED CLASS: 0.0

----------
Listed below: inhibition at 160 µM values for each entry.
- ASSAY SYSTEM: Bcl-xL-Beclin 1 complex (Homo sapiens)
- Construct: made in house
- PROTOCOL: Concentration response FP reconfirmation of HTS hits
- Assay type: binding
- RECORDED CONDITIONS: 160 μM; hits of first screen; read-out: Dose-response (% Inhibition) 160 μM
Structures can show the parent of a compound that is named as a salt.

- COMPOUND: "CCCc1nc2c(C)cc(-c3nc4ccccc4n3C)cc2n1Cc1ccc(-c2ccccc2C(=O)O)cc1"
  MEASUREMENT UNITS: "%"
  inhibition at 160 µM: 11.1
- COMPOUND: "O=C(O)c1cc(O)c2c(c1)[C@@H]([C@H]1c3cc(C(=O)O)cc(O)c3C(=O)c3c(O[C@@H]4O[C@H](CO)[C@@H](O)[C@H](O)[C@H]4O)cccc31)c1cccc(O[C@@H]3O[C@H](CO)[C@@H](O)[C@H](O)[C@H]3O)c1C2=O [Compound A35, SENNOSIDE B]"
  MEASUREMENT UNITS: "%"
  inhibition at 160 µM: 19.9
- COMPOUND: "CN(C)c1ccc(C(=C2C=CC(=[N+](C)C)C=C2)c2ccc(N(C)C)cc2)cc1"
  MEASUREMENT UNITS: "%"
  inhibition at 160 µM: 22.7
- COMPOUND: "O=C1c2cccc(O)c2C(=O)c2c(O)cccc21"
  MEASUREMENT UNITS: "%"
  inhibition at 160 µM: 19.7
- COMPOUND: "O=C(O)C1=CC(=C(c2ccc(O)c(C(=O)O)c2)c2ccc(O)c(C(=O)O)c2)C=CC1=O"
  MEASUREMENT UNITS: "%"
  inhibition at 160 µM: 8.6
- COMPOUND: "COc1cccc2c1C(=O)c1c(O)c3c(c(O)c1C2=O)C[C@@](O)(C(=O)CO)C[C@@H]3O[C@H]1C[C@H](N)[C@@H](O)[C@H](C)O1 [Compound A24, EPIRUBICIN HYDROCHLORIDE]"
  MEASUREMENT UNITS: "%"
  inhibition at 160 µM: 40.9
